- ASSAYED SYSTEM: human ether-à-go-go-related gene (hERG) potassium channel (human)
- PROCEDURE DETAILS: primary screen, population patch clamp on CHO cells stably expressing hERG; higher = less effect of the substance
Hit rate of the full screen: of about 310,000 compounds, about 14,000 (4.5%) showed an effect of 50% or more. The effect is printed as a negative number. The full list was thinned out, with strong results kept by preference.
Catalogue of compounds with associated hERG current change (%, negative = inhibition) at 10uM
Record the value in %, omitting the unit from your answer.

CCOC(=O)C1CCN(CC(O)COCc2ccc(Cl)cc2)CC1.Cl (centres unmarked)    -79.2

Let us examine a further case.
Input: Name the recorded hERG current change (%, negative = inhibition) at 10uM for CC(=O)N1CCN(c2nnc(-c3ccccc3)c3ccccc23)CC1 .
Output: 3.22

###

- ASSAYED SYSTEM: human ether-à-go-go-related gene (hERG) potassium channel (human)
- PROCEDURE DETAILS: primary screen, population patch clamp on CHO cells stably expressing hERG; higher = less effect of the substance
About 14,000 (4.5%) of roughly 310,000 compounds showed an effect of 50% or more. The effect is printed as a negative number. The sample holds strong results, similar compounds and a random draw of the others, so the mix is not that of the screen.
Examples of compounds with documented hERG current change (%, negative = inhibition) at 10uM follow.
Numeric only. Scale: %

Use these answered entries as a reference point.
Cc1cc(C)cc(NC(=S)N2CCN(S(=O)(=O)c3ccccc3)CC2)c1    0.86
O=C1OCCN1C(=O)[C@H]1[C@H](c2ccc([N+](=O)[O-])cc2)C(c2cccc(Cl)c2)=NN1c1ccccc1    5.99
COc1ccc(CCN2C(=O)NC(NC(C)=O)(C(F)(F)F)C2=O)cc1OC (centres unmarked)    7.51
CCOCCCn1c(=N)c(C(=O)NCCN2CCOCC2)cc2c(=O)n3cccc(C)c3nc21    -53.6

Could you now consider this next compound?
Input: GET /values?readout=hERG current change (%, negative = inhibition) at 10uM&item= COc1ccc2c(c1)CC/C(=C\C=C\c1ccccc1OC)C2=O
Output: 8.8

###

- ASSAYED SYSTEM: human ether-à-go-go-related gene (hERG) potassium channel (human, UniProt Q12809)
- Sequence (Q12809 whole entry, looked up): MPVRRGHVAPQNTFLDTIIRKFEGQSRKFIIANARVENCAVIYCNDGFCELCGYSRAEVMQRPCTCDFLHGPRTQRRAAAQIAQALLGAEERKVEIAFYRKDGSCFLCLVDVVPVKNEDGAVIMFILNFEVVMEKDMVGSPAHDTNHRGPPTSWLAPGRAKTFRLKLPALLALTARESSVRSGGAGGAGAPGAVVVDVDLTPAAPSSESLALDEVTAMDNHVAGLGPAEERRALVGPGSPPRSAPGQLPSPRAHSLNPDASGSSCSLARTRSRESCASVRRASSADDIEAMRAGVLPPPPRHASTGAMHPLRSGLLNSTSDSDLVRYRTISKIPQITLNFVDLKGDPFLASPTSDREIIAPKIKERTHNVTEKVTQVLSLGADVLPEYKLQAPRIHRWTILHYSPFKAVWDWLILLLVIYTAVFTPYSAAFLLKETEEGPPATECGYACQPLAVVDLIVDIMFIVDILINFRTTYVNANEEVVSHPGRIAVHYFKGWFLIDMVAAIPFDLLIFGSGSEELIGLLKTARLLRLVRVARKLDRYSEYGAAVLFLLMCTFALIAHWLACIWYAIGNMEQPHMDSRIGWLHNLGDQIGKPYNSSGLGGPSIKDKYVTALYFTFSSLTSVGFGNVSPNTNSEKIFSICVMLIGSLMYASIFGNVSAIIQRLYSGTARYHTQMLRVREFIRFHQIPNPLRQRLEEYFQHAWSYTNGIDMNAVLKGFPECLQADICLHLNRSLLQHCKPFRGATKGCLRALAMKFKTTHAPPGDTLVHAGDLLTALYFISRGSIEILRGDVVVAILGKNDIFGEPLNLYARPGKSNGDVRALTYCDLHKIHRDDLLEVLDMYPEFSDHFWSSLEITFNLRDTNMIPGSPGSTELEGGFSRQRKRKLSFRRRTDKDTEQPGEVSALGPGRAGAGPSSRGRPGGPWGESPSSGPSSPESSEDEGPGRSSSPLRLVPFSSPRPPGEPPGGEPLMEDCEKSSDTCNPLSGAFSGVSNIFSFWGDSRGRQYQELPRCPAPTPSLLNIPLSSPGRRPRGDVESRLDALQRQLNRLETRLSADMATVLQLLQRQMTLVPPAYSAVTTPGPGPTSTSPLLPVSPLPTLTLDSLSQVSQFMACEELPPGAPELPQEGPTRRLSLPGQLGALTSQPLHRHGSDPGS
- PROCEDURE DETAILS: primary screen, population patch clamp on CHO cells stably expressing hERG; higher = less effect of the substance
The whole screen tested about 310,000 compounds, of which about 14,000 (4.5%) showed an effect of 50% or more. Effects have a minus sign here. This is one part of a sample in which strong results are shown more often than they occur.
MEASUREMENT KIND: hERG current change (%, negative = inhibition) at 10uM (%)
Give your result in % as a bare value.

The examples below pair each entry with its known result.
Cc1cc(O)cc(O)c1C=NCc1ccco1    -8.53
O=C(CNC(=O)C1COc2ccccc2O1)N/N=C\c1ccc(Br)cc1 (centres unmarked)    -20.1
CC[C@@H](C)C(NC(=O)OC(C)(C)C)c1cn([C@@H](Cc2ccc(O)cc2)C(=O)N2CCN(C(=O)OC(C)(C)C)CC2)nn1 (some centres unmarked)    -70
O=C(CNC(=O)C1COc2ccccc2O1)N/N=C/c1ccc([N+](=O)[O-])cc1 (centres unmarked)    -71.8

Note: attention shifts to another entry.
Input: Any idea what its hERG current change (%, negative = inhibition) at 10uM is? The molecule is O=C(CNC(=O)C1COc2ccccc2O1)N/N=C/c1cc(Br)c(O)c(Br)c1 (centres unmarked)
Output: -7.99

###

- ASSAYED SYSTEM: human ether-à-go-go-related gene (hERG) potassium channel (human, UniProt Q12809)
- PROCEDURE DETAILS: primary screen, population patch clamp on CHO cells stably expressing hERG; higher = less effect of the substance
The whole screen tested about 310,000 compounds, of which about 14,000 (4.5%) showed an effect of 50% or more. Effects have a minus sign here. The entries come from a sample that favours strong results as a whole.
MEASUREMENT KIND: hERG current change (%, negative = inhibition) at 10uM (%)
Write the number in % without appending the unit.

CN1CCC(=O)N([C@H](CSc2ccc(Br)cc2)Cc2ccccc2)CC1    -64.8
Cc1c(C(=O)O)oc2ccc(S(=O)(=O)NCCC3=CCCCC3)cc12    0.629
CCn1c(SCc2ccc(C)cc2)nnc1C1CCN(S(=O)(=O)c2ccc(OC)cc2)CC1    -64.5

Input: Reported hERG current change (%, negative = inhibition) at 10uM for O=C(COc1ccc(Cl)cc1)N1CCCCC1 : what is it?
Output: -5.82

Input: Item under review: Fc1cc(Br)ccc1NC(=S)Nc1cccnc1 . Reported hERG current change (%, negative = inhibition) at 10uM?
Output: 0.43

Input: What does the record list as hERG current change (%, negative = inhibition) at 10uM for CCn1c(SCc2ccccc2)nnc1C1CCN(S(=O)(=O)c2ccc(OC)cc2)CC1 ?
Output: -60.8

Input: Entry under review: Cc1ccc(SC(C)C(=O)N2CCC(C(N)=O)CC2)cc1 (centres unmarked) . Reported hERG current change (%, negative = inhibition) at 10uM?
Output: 20.1

###

- ASSAYED SYSTEM: human ether-à-go-go-related gene (hERG) potassium channel (human, UniProt Q12809);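 note: peak tail current of the secondary pulse compared with the same well before compound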
- PROCEDURE DETAILS: primary screen, population patch clamp on CHO cells stably expressing hERG; higher = less effect of the substance
In all, about 310,000 compounds went through this assay and about 14,000 (4.5%) showed an effect of 50% or more. Effects have a minus sign here. For the sample, strong results were picked, then their nearest neighbours and some compounds at random.
Response key: true (1) means hERG current change (%, negative = inhibition) at 10uM >= -20%; false (0) means hERG current change (%, negative = inhibition) at 10uM < -20%.

CCOC(=O)c1[nH]c2ccc(OC)cc2c1NC(=O)CCN1CCSCC1    true (1)
CCOC(=O)c1[nH]c2ccc(OC)cc2c1NC(=O)CCN1CCC(C)CC1    false (0)
CCOc1ccc(N(CC(=O)NCCSCc2ccc(Cl)cc2)S(C)(=O)=O)cc1    true (1)
COc1ccc(C(=O)OCC(=O)NC2CC2)cc1S(=O)(=O)N(C)Cc1ccccc1    false (0)
CCN(Cc1ccccc1)S(=O)(=O)c1cc(C(=O)NCCCN(C)C)ccc1OC    false (0)

Moving on to another compound below.
Input: Hi team, for COc1ccc(C(=O)NC(C)c2ccncc2)cc1S(=O)(=O)N(C)Cc1ccccc1 (stereo not drawn) , is the recorded hERG current change (%, negative = inhibition) at 10uM at or above -20%?
Output: false (0)

###

hERG current change (%, negative = inhibition) at 10uM values for the molecules below.
- ASSAYED SYSTEM: human ether-à-go-go-related gene (hERG) potassium channel (human, UniProt Q12809);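 note: peak tail current of the secondary pulse compared with the same well before compound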
- PROCEDURE DETAILS: primary screen, population patch clamp on CHO cells stably expressing hERG; higher = less effect of the substance
The whole screen tested about 310,000 compounds, of which about 14,000 (4.5%) showed an effect of 50% or more. Effects have a minus sign here. The sample holds strong results, similar compounds and a random draw of the others, so the mix is not that of the screen.

Some molecules with recorded hERG current change (%, negative = inhibition) at 10uM:
Nc1nc2n(n1)C(c1cccs1)CC(c1ccc(F)cc1)N2 (stereo not shown)    -33.9%
O=[N+]([O-])c1ccc(CSc2nnc3ccccn23)cc1    -57.2%
CSCC[C@H](NC(=O)OC(C)(C)C)c1nnc(SCc2ccc(F)cc2)o1    -46.2%
CC(C)CCNC(=O)CN(C(=O)CCC(=O)Nc1nccs1)c1ccc2c(c1)OCCO2    -4.45%
Cc1ccc2cc(C#N)c(N3CCCN(C(=O)c4cnccn4)CC3)nc2c1    -42.4%

Input: I'm curious: which hERG current change (%, negative = inhibition) at 10uM was measured for O=c1c2ccccc2nc(SCc2ccc([N+](=O)[O-])cc2)n1-c1ccccc1 tested on human ether-à-go-go-related gene (hERG) potassium channel (human, UniProt Q12809)?;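 note: peak tail current of the secondary pulse compared with the same well before compound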
Output: 10.9%

Input: Give hERG current change (%, negative = inhibition) at 10uM (human ether-à-go-go-related gene (hERG) potassium channel (human, UniProt Q12809)) of the following molecule: Brc1ccc(CSc2nnc3ccccn23)cc1
Output: -18.7%

###

hERG current change (%, negative = inhibition) at 10uM values for the molecules below.
- ASSAYED SYSTEM: human ether-à-go-go-related gene (hERG) potassium channel (human);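 note: peak tail current of the secondary pulse compared with the same well before compound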
- PROCEDURE DETAILS: primary screen, population patch clamp on CHO cells stably expressing hERG; higher = less effect of the substance
Screen size: about 310,000 compounds; about 14,000 (4.5%) showed an effect of 50% or more. Effects have a minus sign here. This is one part of a sample in which strong results are shown more often than they occur.
Your answer is read as %, so omit the unit and give the number.

O=C(CN1CCOCC1)Nc1ncc(Cc2cccc(Cl)c2)s1    -43
Cn1c(CC(=O)Nc2ccccc2F)nnc1SCC(=O)Nc1nccs1    18.6
Cc1cc2cc(CN(CCN(C)C)C(=S)NCc3ccco3)c(=O)[nH]c2cc1C    -43.8

Input: Please report the recorded hERG current change (%, negative = inhibition) at 10uM for O=C(CN1CCOCC1)Nc1ncc(Cc2cccc3ccccc23)s1 .
Output: -23.3

Input: For Cc1ccc(SCC(=O)OCC(=O)NC2CCCCCCC2)cc1 , what is its reported hERG current change (%, negative = inhibition) at 10uM?
Output: -4.33
